- EXPERIMENTAL_PROTOCOL: Metabolic stability in human liver microsomes assessed as parent compound remaining measured after 6 hrs by HPLC analysis
- Format: ADME, Microsome
- CONDITION_SET: read-out: Stability
MEASURE: remaining at 6 h

Query: Any idea what its remaining at 6 h is? The molecule is `CC[C@@H](O)/C=C/c1ccc(C/C=C/[C@@H](O)CCCC(=O)O)cc1`
Result: < 40%

Query: Now consider `CC[C@@H](O)/C=C/C=C\C/C=C\C/C=C\C=C\[C@@H](O)CCCC(=O)O` .
Result: < 40%
